assayProcedure: NCI Yeast Anticancer Drug Screen. Data for the cln2 rad14 strain (AID 165);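 note: 0% = growth equal to vehicle treated cultures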
recordedConditions: S. cerevisiae cln2 rad14 strain, at 50.0 µM
Compounds without any hit were thinned out: in the full panel of roughly 79,000, 15% have a hit. Calls of active or inactive are those of the source. Cut-off read from the data, not from the text of the source: active = growth inhibition above about 70%; inactive = the rest.
# valid calls are YES for active, NO for inactive; nothing else

Worked set:
Query: Lab log entry: COc1ccc(NC(=O)CC(O)c2cccc(N)c2)cc1 (stereo not drawn) — outcome as called in the assay?
Result: NO

Query: Lab log entry: N[C@H]1c2c(Cl)cccc2C(=O)[C@H]1O — outcome as called in the assay?
Result: NO

Query: Lab log entry: NCCCCN(CCCN)Cc1ccccc1 — outcome as called in the assay?
Result: NO

Query: Lab log entry: OCn1c2ccccc2c2ccccc21 — outcome as called in the assay?
Result: NO

Query: Lab log entry: O=C1C=C(Sc2ccccc2)c2nccc3c2c1nc1ccccc13 — outcome as called in the assay?
Result: NO

Query: Lab log entry: CC(=O)Nc1ccc(-c2nnc(SCC(=O)Nc3ccc(C)cc3)o2)cc1 — outcome as called in the assay?
Result: NO

Query: Lab log entry: CSc1nc(NC2OC(COC(C)=O)C(OC(C)=O)C(OC(C)=O)C2OC(C)=O)c(C(=O)CCl)c(=O)n1C (stereo not drawn) — outcome as called in the assay?
Result: NO

Query: Lab log entry: O=c1oc2ncccc2n1Cc1ccc([N+](=O)[O-])cc1 — outcome as called in the assay?
Result: NO

More entries:
Query: Lab log entry: CCCCOc1ccc2c(c1)CC[C@@H]1[C@@H]2CC[C@]2(C)C(=O)N(CCCC)C(=O)C[C@@H]12 — outcome as called in the assay?
Result: NO

Query: Lab log entry: C/C(CC(=O)Nc1ccc(C)c(C)c1)=N\NC(N)=O — outcome as called in the assay?
Result: NO

Query: Lab log entry: O=C1OCCc2c1[nH]c1ccccc21 — outcome as called in the assay?
Result: NO

Query: Lab log entry: O=C1Cc2ccccc2C(O)=C1c1cnccn1 — outcome as called in the assay?
Result: NO

Query: Lab log entry: CC(=O)NC1C(OCc2ccccc2)OC(CO)C(O)C1OCC(=O)N1CCCC1C(=O)NC(CCC(=O)NCCCCCNc1c2ccccc2nc2cccc([N+](=O)[O-])c12)C(N)=O (stereo not drawn) — outcome as called in the assay?
Result: YES

Query: Lab log entry: CNCCSSCCN — outcome as called in the assay?
Result: NO

Query: Lab log entry: Cc1cc(-n2nnc(C(=O)O)c2-c2ccccc2)c2ccc(Cl)cc2n1 — outcome as called in the assay?
Result: NO

Query: Lab log entry: O=C(N[C@H](CO)[C@H](O)c1ccc([N+](=O)[O-])cc1)C(Cl)Cl — outcome as called in the assay?
Result: NO

Query: Lab log entry: CCC(=O)c1cccc(-c2ccccc2)c1CC — outcome as called in the assay?
Result: NO

Query: Lab log entry: CCO/N=C(\N)c1ccccc1 — outcome as called in the assay?
Result: NO

* * *

The entries below come with measured growth inhibition values attached.
assayProcedure: NCI Yeast Anticancer Drug Screen. Data for the mec2-1 strain (AID 157)
recordedConditions: S. cerevisiae mec2-1 strain, at 50.0 µM, active compounds read high
The panel holds about 79,000 compounds, 15% with a hit somewhere; the sample as a whole holds those more often.
Give the value, in units of %, as a plain number.

Example entries and their recorded answers appear below.
Query: Which growth inhibition value is on record for COc1cc2c(cc1OC)C(c1ccccc1)OCC2 (stereo unspecified) ?
Result: 9.65

Query: Which growth inhibition value is on record for O=c1c(Cc2ccccc2)c(O)cc2n1CCC2 ?
Result: -14.4

Query: Which growth inhibition value is on record for O=C(c1ccccc1)C(C(c1ccccc1)N1CCOCC1)N1CCOCC1 (stereo unspecified) ?
Result: 2.2

More entries:
Query: Which growth inhibition value is on record for O=C(O)CCCCCNC(=O)c1ccccc1 ?
Result: 14.8

Query: Which growth inhibition value is on record for O=C(CCCc1ccccc1)NO ?
Result: 33.6

Query: Which growth inhibition value is on record for CC(Oc1ccccc1)C(=O)Nc1ccc(F)cc1 (stereo unspecified) ?
Result: 9.5

Query: Which growth inhibition value is on record for O=C(NC(Cc1ccccc1)C(=O)NC(Cc1c[nH]c2ccccc12)C(=O)O)OCc1ccccc1 (stereo unspecified) ?
Result: 7.45

Query: Which growth inhibition value is on record for COc1ccccc1C(OC)c1ccccc1C(=O)O (stereo unspecified) ?
Result: -17.1

Query: Which growth inhibition value is on record for COc1ccc(COc2ccc([N+](=O)[O-])cc2)cc1 ?
Result: 5

Query: Which growth inhibition value is on record for COc1ccccc1-n1c(C)nc2c(cnn2CN2CCCCC2)c1=O ?
Result: -6.4

Query: Which growth inhibition value is on record for CC(=NNC(=S)Nc1ccc(C)cc1)c1cccc(C(C)=NNC(=S)Nc2ccc(C)cc2)n1 ?
Result: 14.1

Query: Which growth inhibition value is on record for Cc1ccc(CCn2cnc3c(N(CCO)CCO)ncnc32)cc1 ?
Result: 23.8

Query: Which growth inhibition value is on record for Cc1cc(C)c(C(C=O)c2ccccc2)c(C)c1 (stereo unspecified) ?
Result: 2.85

Query: Which growth inhibition value is on record for COc1cc2c(cc1OC)C1CC(O)(c3nccc4cc(OC)c(OC)cc34)CCN1CC2 (stereo unspecified) ?
Result: -1.8

Query: Which growth inhibition value is on record for CCOC(=O)CN1CC(C2=C(O)CN(CC(=O)OCC)C2=O)=CC1=O ?
Result: 9.7

Query: Which growth inhibition value is on record for Cc1cc(=O)c2cc(Cc3ccc(N)cc3)ccc2[nH]1 ?
Result: -16.7

Query: Which growth inhibition value is on record for O=c1[nH]c(=O)n(C2OC(CO)C(O)C2O)cc1NN=NCc1ccccc1 (stereo unspecified) ?
Result: -13.7

Query: Which growth inhibition value is on record for COc1cc(OC)cc(N2CCC(c3c(N)nc(N)nc3Cl)CC2)c1 ?
Result: 10.1

* * *

The entries below come with measured growth inhibition values attached.
assayProcedure: NCI Yeast Anticancer Drug Screen. Data for the mec2-1 strain (AID 157)
recordedConditions: S. cerevisiae mec2-1 strain, at 50.0 µM, active compounds read high
The panel holds about 79,000 compounds, 15% with a hit somewhere; the sample as a whole holds those more often.
Give the value, in units of %, as a plain number.

Example entries and their recorded answers appear below.
Query: Which growth inhibition value is on record for CC(=O)OC1CCC2(C)C(CCC3C2CCC2(C)C(C(C)=O)CCC32)C1 (stereo not given) ?
Result: -9.05

Query: Which growth inhibition value is on record for Clc1ccc(-c2ncc(-c3ccccc3)o2)c(Cl)c1 ?
Result: -3.4

More entries:
Query: Which growth inhibition value is on record for NC(=O)Cc1c(F)c(F)c(F)c(F)c1F ?
Result: -20.5

Query: Which growth inhibition value is on record for CCN(CC)CCCNc1ccc2nnn3c4ccc(O)cc4c(=O)c1c23 ?
Result: -7.9

Query: Which growth inhibition value is on record for O=c1ccc2ccc(O)c(O)c2o1 ?
Result: -5.3

Query: Which growth inhibition value is on record for COc1ccc(C(=O)c2ccccc2C(=O)c2ccc(OC)cc2)cc1 ?
Result: 16.1

Query: Which growth inhibition value is on record for N#Cc1ccc(CCc2ccc(Cl)cc2)cc1 ?
Result: -17.2

Query: Which growth inhibition value is on record for COc1c2occc2c(Br)c2ccc(=O)oc12 ?
Result: 0.35

Query: Which growth inhibition value is on record for Fc1ccc(CN2COc3c(ccc4cccnc34)C2)c(F)c1 ?
Result: 43.6

Query: Which growth inhibition value is on record for O=[N+]([O-])c1ccccc1N=NNc1ccccc1[N+](=O)[O-] ?
Result: -4

* * *

assayProcedure: NCI Yeast Anticancer Drug Screen. Data for the mlh1 rad18 strain (AID 175)
recordedConditions: S. cerevisiae mlh1 rad18 strain growth inhibition; at 50.0 µM; active compounds read high
The panel holds about 79,000 compounds, 15% with a hit somewhere; the sample as a whole holds those more often.
experimentalEndpoint: growth inhibition (%)
Give the value, in units of %, as a plain number.

Example entries and their recorded answers appear below.
Query: Which growth inhibition value is on record for O=C(CN1C(=O)c2cccc3c(Br)ccc(c23)C1=O)c1ccc(Cl)cc1 ?
Result: 13.6

Query: Which growth inhibition value is on record for COC1=CC(=O)C(C(C)=O)=C(C2(C)C(=O)CCCC2=O)C1=O ?
Result: 7.25

Query: Which growth inhibition value is on record for Cc1ccc(C(=O)O)c(C(=O)O)c1 ?
Result: 1.75

Query: Which growth inhibition value is on record for Clc1ccc2c(c1)C1Oc3ccc(Cl)cc3C(O2)O1 ?
Result: -2.3

Query: Which growth inhibition value is on record for CCOC(=O)Nc1nc2cc(C(=O)OC)n(C)c2s1 ?
Result: 18.9

Query: Which growth inhibition value is on record for CN(C)Cc1cccc(C(F)(F)F)c1C(O)c1ccccc1 (centres undefined) ?
Result: -14.7

Query: Which growth inhibition value is on record for NC(CSS(=O)(=O)CC(N)C(=O)O)C(=O)O (centres undefined) ?
Result: -7.05

Query: Which growth inhibition value is on record for Cc1cc(Cl)nc(/N=C(\N)Nc2ccc(Cl)c(Cl)c2)n1 ?
Result: 7.6

Please look at the following compound next.
Query: Which growth inhibition value is on record for CC(=S)NC(=O)Nc1cccc2ccccc12 ?
Result: 10.8
